Every entry's value here was drawn from ChEMBL document CHEMBL3988442.

Molecular target: Ubiquitin-activating enzyme e1, putative (Leishmania donovani (strain BPK282A1))
Test: Leishmania donovani Ubiquitin Activating Enzyme (LdE1)
Type: functional
Set-up: scale not given: direction of the effect not stated beside the values
Settings: 30 µM
Results with a measured potency or affinity are listed apart.
readout: Percent Effect (%)
The response must be a number in % with no trailing unit.

The following compounds have reported results that may help.
- compound: "FC(F)(F)COCCN1CCCC(c2noc(C3CC3)n2)C1 (stereo unspecified)"
  testValue: 5.33
- compound: "Cc1ccc(CC(=O)NCCCNS(C)(=O)=O)cc1"
  testValue: 13.9
- compound: "Cc1nn(C)c(N(C)C)c1CNCc1cccc(CN(C)C(C)C)c1"
  testValue: 13.5
- compound: "COc1ccnc(N2CCN(C(=O)c3csc(C4CC4)n3)CC2)n1"
  testValue: 2.7
- compound: "Cc1cccc(-n2cc(C(=O)N3CCn4c(C)nnc4C3)nn2)c1"
  testValue: -2.74
- compound: "Cc1nc(C)c(CC(=O)N2C[C@H]3CC[C@@H]2CN(C(=O)N(C)C)C3)c(=O)[nH]1"
  testValue: 0

For the compound CN1CCN(C[C@@H]2OC[C@H]3CN(Cc4cccc(F)c4)CC[C@H]32)CC1 , the measured Percent Effect on Ubiquitin-activating enzyme e1, putative (Leishmania donovani (strain BPK282A1)) was 2.67

For the compound CC(C)CCOCCNC(=O)Nc1cc(C(F)(F)F)c[nH]c1=O , the measured Percent Effect on Ubiquitin-activating enzyme e1, putative (Leishmania donovani (strain BPK282A1)) was 8.11

For the compound Cn1ncc2c(=O)[nH]c(CN(Cc3ccco3)C3CCCC3)nc21 , the measured Percent Effect on Ubiquitin-activating enzyme e1, putative (Leishmania donovani (strain BPK282A1)) was 23.4

For the compound CCN1CCCC(CNC(=O)C2(c3cccc(Cl)c3)CC2)C1 (stereo unspecified) , the measured Percent Effect on Ubiquitin-activating enzyme e1, putative (Leishmania donovani (strain BPK282A1)) was 6.33

For the compound CC(C)NC(=O)COc1nc(C(C)(C)C)no1 , the measured Percent Effect on Ubiquitin-activating enzyme e1, putative (Leishmania donovani (strain BPK282A1)) was 13.5
